As shown below, each of these binders has a reported EC50, cAMP, 10 ng/mL Doxycycline value.
- SYSTEM TESTED: human melanocortin-4 receptor (human, UniProt P32245 1-332)
- Sequence (P32245 whole entry): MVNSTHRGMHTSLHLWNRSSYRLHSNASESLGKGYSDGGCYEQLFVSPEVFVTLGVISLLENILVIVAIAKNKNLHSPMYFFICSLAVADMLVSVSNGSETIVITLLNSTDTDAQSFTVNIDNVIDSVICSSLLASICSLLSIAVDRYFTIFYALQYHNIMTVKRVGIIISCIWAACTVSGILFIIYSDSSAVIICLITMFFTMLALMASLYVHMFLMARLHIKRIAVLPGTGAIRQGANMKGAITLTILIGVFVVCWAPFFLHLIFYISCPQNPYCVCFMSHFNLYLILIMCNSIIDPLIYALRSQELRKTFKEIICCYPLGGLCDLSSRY
- PROCEDURE TEXT: cell-based or functional assay
Positions of bridges follow the written chain, without caps; N, C: chain ends. Non-standard residues stand in square brackets, D forms with d. dPhe(4-CN) = N#Cc1ccc(C[C@@H](N)C(=O)O)cc1; dPhe(2-Cl) = N[C@H](Cc1ccccc1Cl)C(=O)O; Orn = NCCC[C@H](N)C(=O)O

Entry Ac-RDN[dPhe(4-CN)]RWK-NH2 (lactam 2-7, also called No. 89) [Ac-Arg-cyclo(Asp-Asn-D-Phe(4-CN)-Arg-Trp-Lys)-NH2] has what EC50, cAMP, 10 ng/mL Doxycycline? 17 nM

Entry Ac-REE[dPhe(4-CN)]RW[Orn]-NH2 (lactam 2-7; SMILES CC(=O)N[C@@H](CCCNC(=N)N)C(=O)N[C@H]1CCC(=O)NCCC[C@@H](C(N)=O)NC(=O)[C@H](Cc2c[nH]c3ccccc23)NC(=O)[C@H](CCCNC(=N)N)NC(=O)[C@@H](Cc2ccc(C#N)cc2)NC(=O)[C@H](CCC(=O)O)NC1=O) [Ac-Arg-cyclo(Glu-Glu-D-Phe(4-CN)-Arg-Trp-Orn)-NH2] has what EC50, cAMP, 10 ng/mL Doxycycline? 9 nM

Entry Ac-RES[dPhe(2-Cl)]RW[Orn]-NH2 (lactam 2-7; SMILES CC(=O)N[C@@H](CCCNC(=N)N)C(=O)N[C@H]1CCC(=O)NCCC[C@@H](C(N)=O)NC(=O)[C@H](Cc2c[nH]c3ccccc23)NC(=O)[C@H](CCCNC(=N)N)NC(=O)[C@@H](Cc2ccccc2Cl)NC(=O)[C@H](CO)NC1=O, also called No. 31) [Ac-Arg-cyclo(Glu-Ser-D-Phe(2-Cl)-Arg-Trp-Orn)-NH2] has what EC50, cAMP, 10 ng/mL Doxycycline? 0.313 nM

Entry RDQXRWK (N-terminal Ac; D-Phe(4-CN) 4; lactam Asp 2-Lys 7; C-terminal NH2, also called No. 90) [Ac-Arg-cyclo(Asp-Gln-D-Phe(4-CN)-Arg-Trp-Lys)-NH2] has what EC50, cAMP, 10 ng/mL Doxycycline? 0.283 nM

Ref: patent US20100311648A1
